pIC50 by entry:
Tested on: B16
Assay Info: Antiproliferative activity against mouse B16 cells measured after 48 hrs by MTT assay
Assay type: functional, cell-based
Test Settings: B16, 48 h
# reply with the number alone; pIC50 is -log10 of concentration in mol/L

Per the record, C[C@]12CC[C@H](O)CC1=CC[C@@H]1[C@@H]2CC[C@]2(C)C(c3ccc(F)nc3)=CC[C@@H]12 has pIC50 of 4.25

* * *

IC50 by entry:
Tested on: B16
Assay Info: Antiproliferative activity against mouse B16 cells measured after 48 hrs by MTT assay
Type: functional, cell-based
Test Settings: B16, 48 h

{"columns": ["Mol Smiles", "Metric Name", "Obs Value"],
 "data": [
  ["CC(C)[C@H](NC(=O)CN)C(=O)O[C@H]1CC[C@@]2(C)C(=CC[C@@H]3[C@@H]2CC[C@]2(C)C(c4cnccc4Cl)=CC[C@@H]32)C1", "IC50", "3.78 µM"],
  ["CC(C)[C@H](N)C(=O)NCC(=O)O[C@H]1CC[C@@]2(C)C(=CC[C@@H]3[C@@H]2CC[C@]2(C)C(c4cccnc4)=CC[C@@H]32)C1", "IC50", "13.4 µM"],
  ["CC(C)[C@H](NC(=O)CN)C(=O)O[C@H]1CC[C@@]2(C)C(=CC[C@@H]3[C@@H]2CC[C@]2(C)C(c4ccc(F)nc4)=CC[C@@H]32)C1", "IC50", "3.16 µM"]
]}

Per the record, C[C@]12CC[C@H](OC(=O)CN)CC1=CC[C@@H]1[C@@H]2CC[C@]2(C)C(c3cccnc3)=CC[C@@H]12 has IC50 of 221 µM

Per the record, CC(C)[C@H](NC(=O)CN)C(=O)O[C@H]1CC[C@@]2(C)C(=CC[C@@H]3[C@@H]2CC[C@]2(C)C(O)=CC[C@@H]32)C1 has IC50 of 16.5 µM

Per the record, C[C@]12CC[C@H](O)CC1=CC[C@@H]1[C@@H]2CC[C@]2(C)C(c3cccnc3)=CC[C@@H]12 has IC50 of 106 µM

* * *

Tested on: B16
Assay Info: Antiproliferative activity against mouse B16 cells measured after 48 hrs by MTT assay
Assay type: functional, cell-based
Test Settings: B16, 48 h
Metric Name: IC50 (µM)
API: value field is a number in µM; no unit string.

Use these answered entries as a reference point.
{"columns": ["Mol Smiles", "Metric Name", "Obs Value"],
 "data": [
  ["CC(C)[C@H](NC(=O)CN)C(=O)O[C@H]1CC[C@@]2(C)C(=CC[C@@H]3[C@@H]2CC[C@]2(C)C(c4cccnc4)=CC[C@@H]32)C1", "IC50", 9.7],
  ["C[C@]12CC[C@H](OC(=O)CNC(=O)CN)CC1=CC[C@@H]1[C@@H]2CC[C@]2(C)C(c3cccnc3)=CC[C@@H]12", "IC50", 177],
  ["C[C@]12CC[C@H](OC(=O)CN)CC1=CC[C@@H]1[C@@H]2CC[C@]2(C)C(O)=CC[C@@H]12", "IC50", 71.6]
]}

Lab note: next molecule to report on.
Per the record, CC(C)C[C@H](NC(=O)CN)C(=O)O[C@H]1CC[C@@]2(C)C(=CC[C@@H]3[C@@H]2CC[C@]2(C)C(c4cccnc4)=CC[C@@H]32)C1 has IC50 of 30.5
